# System: MDR1 (P-gp)
# ASSAY REMARKS: Blood-brain-barrier (BBB) penetration potential via MDCK-MDR1 permeability assay
# CONDITION PARAMETERS: dog, MDCK-MDR1, pH 7.4, MDCK-MDR1: Papp B-A, B-A direction
VALUE KIND: Papp B→A at 120 min, 5 μM (×10⁻⁶ cm/s)
Report only the number, with the unit ×10⁻⁶ cm/s understood.

### Prompt Quick check: Papp B→A at 120 min, 5 μM of CN(c1ccc(-c2ccc(-c3cnn(C)c3)cc2O)nn1)[C@H]1C[C@@H]2CCC[C@@H](N2)[C@H]1F [Compound 15B] ?
### Response 39.3

### Prompt Quick check: Papp B→A at 120 min, 5 μM of CNC(=O)c1ccc(-c2ccc(N(C)[C@H]3C[C@@H]4CC[C@@H](N4)[C@H]3F)nn2)c(O)c1 (single isomer, unassigned) [Compound 77B] ?
### Response 40.3

### Prompt Quick check: Papp B→A at 120 min, 5 μM of CN(c1ccc(-c2ccc(-n3cnc(C#N)c3)cc2O)nn1)[C@H]1C[C@@H]2CC[C@@H](N2)[C@H]1F [Compound 69B] ?
### Response 52.3

### Prompt Quick check: Papp B→A at 120 min, 5 μM of Cc1ccc(-c2ccc(-c3ccc(N(C)[C@H]4C[C@@H]5CCC[C@@H](N5)[C@H]4F)nn3)c(O)c2)nn1 [Compound 27B] ?
### Response 43.5

### Prompt Quick check: Papp B→A at 120 min, 5 μM of CN(c1ccc(-c2cc3ncccc3cc2O)nn1)[C@@H]1C[C@H]2CC(F)(F)[C@@H](C1)N2 [Compound 46A] ?
### Response 29.2

### Prompt Quick check: Papp B→A at 120 min, 5 μM of CCc1cn(-c2ccc(-c3ccc(N(C)[C@@H]4C[C@H]5CC(F)(F)[C@@H](C4)N5)nn3)c(O)c2)cn1 [Compound 18A] ?
### Response 40.7

### Prompt Quick check: Papp B→A at 120 min, 5 μM of CCN(c1ccc(-c2ccc(-c3cn[nH]c3)cc2O)nn1)[C@H]1C[C@@H]2CC[C@@H](N2)[C@H]1F [Compound 12B] ?
### Response 30.1
